B1: Formin-binding protein 4, residues 200 to 261; numbered along this chain, Q8N3X1 (parent)
chain: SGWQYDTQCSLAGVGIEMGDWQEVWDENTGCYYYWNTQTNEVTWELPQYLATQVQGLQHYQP

Variants of: B1
method-summary: abundance fitness (aPCA) (normalised: wild type 0, dead -1); higher = more abundant; growth selection in yeast, the domain comes from the species named
condition-label: Homo sapiens
observable: abundance fitness

> print(dat)
    residue.change  experimental.result
 1            G19C               -0.918
 2            P62H                0.084
 3            E23W                -1.06
 4            G13H               -0.158
 5            Y32H                -0.16
 6             S1F               -0.457
 7             G2S                0.222
 8            V24F               -0.168
 9            Y49H                0.118
10            I16D               -0.742
11             T7P               -0.309
12            N28K                0.108
13             Y5I               -0.436
14            Q61I               -0.299
15            V14Q                0.071
16            Y33G               -0.576
17            Y34H               -0.873
18            Y34Q               -0.946
19             Y5D               -0.525
20            E27A                0.043
21            L46K               -0.631
22            W35S                0.066
23            T43N               -0.263
24            E45N               -0.282
25            Y49E                 0.09
26            V24Q                0.097
27            T52I                0.029
28             Y5S               -0.323
29            M18F               -0.278
30            W21V                -0.82
31             Q8V               -0.191
32            V54G               -0.546
33            L57G                -0.15
34            H59L               -0.083
35            Q53C               -0.738
36            G56T                0.015
37            L57Q                0.047

The reported numbers originate from the Human Domainome abundance scans (Beltran et al. 2025).
